Values from ChEMBL document CHEMBL1136740

- System: Canis familiaris
- method.summary: Concentration in dogs after oral administration at dose of 1 mg/kg after 180 min.
- Assay type: ADME, organism-based, Canis lupus familiaris
- Set-up: dose 1 mg/kg, route oral
- condition.info: dog, in vivo, 3 h
# cutoff 300 µg·min/L applies to GH AUC 0-180; >= gives t, < gives f

compound	assigned.class
CC(C)(N)C(=O)N[C@H](Cc1c[nH]c2ccccc12)C(=O)N[C@H](Cc1c[nH]c2ccccc12)NC=O	t
CC(C)(N)C(=O)N[C@H](COCc1ccccc1)C(=O)N1CCC2(CC1)CN(S(C)(=O)=O)c1ccccc12	t
CCNC(=O)N[C@@H](Cc1c[nH]c2ccccc12)NC(=O)[C@@H](Cc1c[nH]c2ccccc12)NC(=O)C(C)(C)N	f
CC(C)(N)C(=O)N[C@H](Cc1c[nH]c2ccccc12)C(=O)N[C@H](Cc1c[nH]c2ccccc12)NC(=O)C1CCCCN1 (stereo partly specified)	f
CNC(C)(C)C(=O)N[C@H](Cc1c[nH]c2ccccc12)C(=O)N[C@H](Cc1c[nH]c2ccccc12)NC(C)=O	f
CNC(C)(C)C(=O)N[C@H](Cc1c[nH]c2ccccc12)C(=O)N(C)[C@H](Cc1c[nH]c2ccccc12)NC(C)=O	f

----------
- assayed.system: Growth hormone secretagogue receptor type 1 (Homo sapiens, UniProt Q92847)
- Sequence (Q92847 whole entry): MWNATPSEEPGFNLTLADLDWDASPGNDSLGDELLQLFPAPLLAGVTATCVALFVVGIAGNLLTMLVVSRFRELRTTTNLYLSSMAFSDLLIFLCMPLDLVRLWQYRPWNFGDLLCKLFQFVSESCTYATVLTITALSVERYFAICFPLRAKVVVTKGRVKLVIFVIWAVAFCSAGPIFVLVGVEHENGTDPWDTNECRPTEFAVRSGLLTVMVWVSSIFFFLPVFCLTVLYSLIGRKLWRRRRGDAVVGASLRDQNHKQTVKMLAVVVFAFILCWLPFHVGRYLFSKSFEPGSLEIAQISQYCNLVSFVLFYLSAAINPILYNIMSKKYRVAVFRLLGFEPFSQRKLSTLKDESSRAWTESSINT
- method.summary: Binding affinity towards human pituitary Growth hormone secretagogue receptor using [125I][Tyr4]-ghrelin as radioligand
pIC50: −log10 of the molar value. Non-standard residues stand in square brackets, D forms with d. Residues, ends and D or L forms follow the SMILES beside them. dTrp(2-Me) = Cc1[nH]c2ccccc2c1C[C@@H](N)C(=O)O

molecule	assayed.system	rel	pIC50
CNC(C)(C)C(=O)N[C@H](Cc1c[nH]c2ccccc12)C(=O)N[C@H](Cc1c[nH]c2ccccc12)NC(C)=O	Growth hormone secretagogue receptor type 1 (Homo sapiens, UniProt Q92847)	=	7.13
Cc1[nH]c2ccccc2c1C[C@@H](NC(=O)[C@@H](N)Cc1cnc[nH]1)C(=O)N[C@@H](C)C(=O)N[C@@H](Cc1c[nH]c2ccccc12)C(=O)N[C@H](Cc1ccccc1)C(=O)N[C@@H](CCCCN)C(N)=O [EXAMORELIN] (H-H[dTrp(2-Me)]AW[dF]K-NH2)	Growth hormone secretagogue receptor type 1 (Homo sapiens, UniProt Q92847)	=	7.74
CC(=O)N[C@@H](Cc1c[nH]c2ccccc12)NC(=O)[C@@H](Cc1c[nH]c2ccccc12)NC(=O)C1CCNCC1	Growth hormone secretagogue receptor type 1 (Homo sapiens, UniProt Q92847)	<	5.00
NC1(C(=O)N[C@H](Cc2c[nH]c3ccccc23)C(=O)N[C@H](Cc2c[nH]c3ccccc23)NC=O)CCNCC1	Growth hormone secretagogue receptor type 1 (Homo sapiens, UniProt Q92847)	=	5.75
CCC(=O)N[C@@H](Cc1c[nH]c2ccccc12)NC(=O)[C@@H](Cc1c[nH]c2ccccc12)NC(=O)C(C)(C)N	Growth hormone secretagogue receptor type 1 (Homo sapiens, UniProt Q92847)	=	6.73
CC(=O)N[C@@H](Cc1c[nH]c2ccccc12)NC(=O)[C@@H](Cc1c[nH]c2ccccc12)NC(=O)C(C)(C)N(C)C	Growth hormone secretagogue receptor type 1 (Homo sapiens, UniProt Q92847)	=	7.70
CCNC(=O)N[C@@H](Cc1c[nH]c2ccccc12)NC(=O)[C@@H](Cc1c[nH]c2ccccc12)NC(=O)C(C)(C)N	Growth hormone secretagogue receptor type 1 (Homo sapiens, UniProt Q92847)	=	7.77
O=CN[C@@H](Cc1c[nH]c2ccccc12)NC(=O)[C@@H](Cc1c[nH]c2ccccc12)NC(=O)C1CCNCC1	Growth hormone secretagogue receptor type 1 (Homo sapiens, UniProt Q92847)	=	6.41
CC(C)(N)C(=O)N[C@H](Cc1c[nH]c2ccccc12)C(=O)N[C@H](Cc1c[nH]c2ccccc12)NC(=O)C1CCCCN1 (stereo partly drawn)	Growth hormone secretagogue receptor type 1 (Homo sapiens, UniProt Q92847)	=	7.67
CC(=O)N[C@@H](Cc1c[nH]c2ccccc12)NC(=O)[C@@H](Cc1c[nH]c2ccccc12)NC(=O)C(C)(C)N	Growth hormone secretagogue receptor type 1 (Homo sapiens, UniProt Q92847)	=	5.41
CC(C)CC(=O)N[C@@H](Cc1c[nH]c2ccccc12)NC(=O)[C@@H](Cc1c[nH]c2ccccc12)NC(=O)C(C)(C)N	Growth hormone secretagogue receptor type 1 (Homo sapiens, UniProt Q92847)	=	7.22
CNC(C)(C)C(=O)N[C@H](Cc1c[nH]c2ccccc12)C(=O)N[C@H](Cc1c[nH]c2ccccc12)NC=O	Growth hormone secretagogue receptor type 1 (Homo sapiens, UniProt Q92847)	=	7.41
Cc1[nH]c2ccccc2c1C[C@@H](NC(=O)[C@H](Cc1c[nH]cn1)NC(=O)[C@H](C)NC(=O)[C@@H](N)Cc1ccc(O)cc1)C(=O)N[C@@H](C)C(=O)N[C@@H](Cc1c[nH]c2ccccc12)C(=O)N[C@H](Cc1ccccc1)C(=O)N[C@@H](CCCCN)C(N)=O (H-YAH[dTrp(2-Me)]AW[dF]K-NH2)	Growth hormone secretagogue receptor type 1 (Homo sapiens, UniProt Q92847)	=	7.92
CCC(=O)N[C@@H](Cc1c[nH]c2ccccc12)NC(=O)[C@@H](Cc1c[nH]c2ccccc12)NC(=O)C(C)(C)NC	Growth hormone secretagogue receptor type 1 (Homo sapiens, UniProt Q92847)	<	5.00
CNC(C)(C)C(=O)N[C@H](Cc1c[nH]c2ccccc12)C(=O)N(C)[C@H](Cc1c[nH]c2ccccc12)NC(C)=O	Growth hormone secretagogue receptor type 1 (Homo sapiens, UniProt Q92847)	=	7.59
CC(C)(N)C(=O)N[C@H](Cc1c[nH]c2ccccc12)C(=O)N[C@H](Cc1c[nH]c2ccccc12)NC=O [MACIMORELIN]	Growth hormone secretagogue receptor type 1 (Homo sapiens, UniProt Q92847)	=	7.64
CCOC(=O)N[C@@H](Cc1c[nH]c2ccccc12)NC(=O)[C@@H](Cc1c[nH]c2ccccc12)NC(=O)C(C)(C)N	Growth hormone secretagogue receptor type 1 (Homo sapiens, UniProt Q92847)	=	7.79
CNC(C)(C)C(=O)N[C@H](Cc1c[nH]c2ccccc12)C(=O)N[C@H](Cc1c[nH]c2ccccc12)NC(=O)CC(C)C	Growth hormone secretagogue receptor type 1 (Homo sapiens, UniProt Q92847)	=	6.67
